# Assay: ATG_GLI_CIS: Attagene CIS-FACTORIAL HepG2 Assay for human Zinc Finger Protein GLI1 (AID 2282945)
# Test Conditions: HepG2, Attagene cis-factorial reporter mRNA, GLI element; actives raise or lower the signal
Calls of active or inactive are those of the source. The calls were made as follows: active = hit-call score of the fitted dose curve at least 0.9, where 1 is the maximum; inactive = score below 0.9.
Possible outcomes: T for active, F for inactive

>  <Compound>
C=CC(=O)OCC(CO)(COCC(COC(=O)C=C)(COC(=O)C=C)COC(=O)C=C)COC(=O)C=C

>  <Class Name>
F

$$$$
>  <Compound>
c1cnc2c(c1)ccc1cccnc12

>  <Class Name>
F

$$$$
>  <Compound>
Cc1cncc(C)c1

>  <Class Name>
F

$$$$
>  <Compound>
FC(F)(F)C1(F)C(F)(F)C(F)(F)C(F)(F)C1(F)F

>  <Class Name>
F

$$$$
>  <Compound>
C/C=C/C(=O)C1=C(C)CCCC1(C)C

>  <Class Name>
T

$$$$
>  <Compound>
CCN(CCC#N)c1ccccc1

>  <Class Name>
F

$$$$
>  <Compound>
C=CC(C)(CCC=C(C)C)OC(C)=O (stereo unspecified)

>  <Class Name>
F

$$$$
>  <Compound>
FCOC(C(F)(F)F)C(F)(F)F

>  <Class Name>
F

$$$$
>  <Compound>
CC(=O)Nc1ccc(S(N)(=O)=O)cc1

>  <Class Name>
F

$$$$
>  <Compound>
Cn1sccc1=O

>  <Class Name>
T

$$$$
>  <Compound>
Clc1ccc2c(Cl)ccnc2c1

>  <Class Name>
F

$$$$

###

# Read-out: Interleukin-8 (IL8), CXCL8 (gene 3576)
# Assay: BSK_SAg_IL8: BioMAP Diversity Plus: SAg Assay for Interleukin-8 (IL8) Biomarker Activity (AID 2283094)
# Test Conditions: primary human HUVEC with PBMC; actives raise or lower the signal
# Method: BSK_SAg is a cell-based, multiplexed-readout assay that uses umbilical vein endothelium and peripheral blood mononuclear cells, a human vascular primary cell co-culture, with measurements taken at 24 hours after chemical dosing in a 96-well plate.BSK_SAg_IL8 is an assay component measured in the BSK_SAg assay. It measures IL-8 antibody related to regulation of gene expression using ELISA technology.Data from the assay component BSK_SAg_IL8 was analyzed into 1 assay endpoint. […]
Calls of active or inactive are those of the source. How the source made its calls: active means hit-call score of the fitted dose curve at least 0.9, where 1 is the maximum; inactive means score below 0.9.

>  <Molecule Smiles>
COC1=CC(=O)C[C@@H](C)[C@]12Oc1c(Cl)c(OC)cc(OC)c1C2=O

>  <AC50>
inactive

$$$$
>  <Molecule Smiles>
C=COC(=O)C(C)(C)CCCCCC

>  <AC50>
inactive

$$$$
>  <Molecule Smiles>
NC(=NCCCCCCN=C(N)/N=C(\N)Nc1ccc(Cl)cc1)/N=C(\N)Nc1ccc(Cl)cc1

>  <AC50>
896 nM (active)

$$$$
>  <Molecule Smiles>
CCCCCCCCCCCCCCC

>  <AC50>
inactive

$$$$

###

# Assay System: Bile acid receptor (Homo sapiens) (UniProt Q96RI1)
# Sequence (Q96RI1 whole entry, looked up): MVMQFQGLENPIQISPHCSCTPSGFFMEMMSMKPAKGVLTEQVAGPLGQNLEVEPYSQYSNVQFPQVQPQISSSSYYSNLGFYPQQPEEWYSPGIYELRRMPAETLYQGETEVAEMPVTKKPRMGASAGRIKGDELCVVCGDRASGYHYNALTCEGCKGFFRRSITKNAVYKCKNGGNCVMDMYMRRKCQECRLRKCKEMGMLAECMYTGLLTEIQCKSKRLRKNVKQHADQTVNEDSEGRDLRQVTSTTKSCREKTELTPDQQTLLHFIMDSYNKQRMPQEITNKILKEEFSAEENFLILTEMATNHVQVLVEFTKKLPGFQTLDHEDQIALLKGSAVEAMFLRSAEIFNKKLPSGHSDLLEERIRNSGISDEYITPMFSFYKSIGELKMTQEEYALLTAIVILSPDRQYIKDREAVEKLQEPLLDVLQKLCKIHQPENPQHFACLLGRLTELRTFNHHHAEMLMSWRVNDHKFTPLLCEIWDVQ
# Assay: ATG_FXR_TRANS: Attagene TRANS-FACTORIAL HepG2 Assay for Farnesoid X Receptor (FXR) (AID 2282979);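 also: hits raise reporter mRNA above DMSO so AC50 marks FXR activation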
# Test Conditions: HepG2 Attagene TRANS FXR-GAL4 reporter transcription
Records with an inconclusive call do not appear. Calls of active or inactive are those of the source. The calls were made as follows: active = hit-call score of the fitted dose curve at least 0.9, where 1 is the maximum; inconclusive = response in the unintended direction; inactive = score below 0.9.
Outcomes: active, inactive

>  <Molecule>
Cc1ccc2ccc3ccc(C)cc3c2c1

>  <Class Name>
inactive

$$$$
>  <Molecule>
CC1COCc2cc3c(cc21)C(C)(C)C(C)C3(C)C (configuration not stated)

>  <Class Name>
inactive

$$$$
>  <Molecule>
CCc1cccc(CC)c1NC(=O)C(=O)O

>  <Class Name>
inactive

$$$$
>  <Molecule>
O=P(O)(O)CCC(F)(F)C(F)(F)C(F)(F)C(F)(F)C(F)(F)C(F)(F)C(F)(F)C(F)(F)F

>  <Class Name>
inactive

$$$$
>  <Molecule>
C[N+](C)(CCCNS(=O)(=O)CCC(F)(F)C(F)(F)C(F)(F)C(F)(F)C(F)(F)C(F)(F)F)CC(=O)[O-]

>  <Class Name>
inactive

$$$$
>  <Molecule>
C=CC(=O)OCCC(F)(F)C(F)(F)C(F)(F)C(F)(F)C(F)(F)C(F)(F)F

>  <Class Name>
inactive

$$$$
>  <Molecule>
C=COC(=O)C(C)(C)CCCCCC

>  <Class Name>
inactive

$$$$
>  <Molecule>
CCCCC=O

>  <Class Name>
inactive

$$$$
>  <Molecule>
CCc1ccccc1O

>  <Class Name>
inactive

$$$$
>  <Molecule>
CCCCCCCCC1CCC(=O)O1 (configuration not stated)

>  <Class Name>
inactive

$$$$
>  <Molecule>
NNC(=O)CCCCC(=O)NN

>  <Class Name>
inactive

$$$$
>  <Molecule>
CC[N+](CC)(CC)Cc1ccccc1

>  <Class Name>
inactive

$$$$
>  <Molecule>
CC(=O)Nc1ccc(S(N)(=O)=O)cc1

>  <Class Name>
inactive

$$$$
>  <Molecule>
CC(O)COc1ccccc1 (configuration not stated)

>  <Class Name>
inactive

$$$$
>  <Molecule>
O=S(=O)(O)c1ccccc1

>  <Class Name>
inactive

$$$$
>  <Molecule>
O=CC(F)(F)C(F)(F)C(F)(F)C(F)F

>  <Class Name>
inactive

$$$$
>  <Molecule>
c1ccc(CNc2ncnc3c2ncn3C2CCCCO2)cc1 (configuration not stated)

>  <Class Name>
inactive

$$$$
>  <Molecule>
O=C1C=CC(=O)N1c1cccc(N2C(=O)C=CC2=O)c1

>  <Class Name>
inactive

$$$$
>  <Molecule>
Cc1[nH]nc2c1N=C(c1ccccc1Cl)c1cc([N+](=O)[O-])ccc1N2

>  <Class Name>
inactive

$$$$
>  <Molecule>
CC(C)(C)c1ccc(O)c(O)c1

>  <Class Name>
inactive

$$$$
>  <Molecule>
CCN(CCC#N)c1ccccc1

>  <Class Name>
inactive

$$$$
>  <Molecule>
Cc1ccccc1C(OCCN(C)C)c1ccccc1 (configuration not stated)

>  <Class Name>
inactive

$$$$
>  <Molecule>
O=C(c1cc(O)c(O)c(O)c1)c1ccc(O)c(O)c1O

>  <Class Name>
inactive

$$$$
>  <Molecule>
O=C(O)c1cccc(C(=O)O)n1

>  <Class Name>
inactive

$$$$
>  <Molecule>
O=S(=O)(O)C(F)(F)C(F)(F)C(F)(F)C(F)(F)C(F)(F)C(F)(F)C(F)(F)C(F)(F)C(F)(F)C(F)(F)F

>  <Class Name>
inactive

$$$$
>  <Molecule>
FC1(F)C=CC(F)(F)C1(F)F

>  <Class Name>
inactive

$$$$
>  <Molecule>
CCc1cccc(CC)c1N(COC)C(=O)CS(=O)(=O)O

>  <Class Name>
inactive

$$$$
>  <Molecule>
CCCCCCCCC(C)=O

>  <Class Name>
inactive

$$$$
>  <Molecule>
O=C(Nc1ccc(Cl)c(Cl)c1)c1cc(Cl)cc(Cl)c1O

>  <Class Name>
active

$$$$
>  <Molecule>
c1cc2cccc3c4cccc5cccc(c(c1)c23)c54

>  <Class Name>
inactive

$$$$
>  <Molecule>
FC(F)(F)C(F)(F)C(F)(F)C(F)(F)I

>  <Class Name>
inactive

$$$$
>  <Molecule>
Cc1cc(Cc2cc(C)cc(C(C)(C)C)c2O)c(O)c(C(C)(C)C)c1

>  <Class Name>
inactive

$$$$
>  <Molecule>
O=C(O)CN(CCCN(CC(=O)O)CC(=O)O)CC(=O)O

>  <Class Name>
inactive

$$$$
>  <Molecule>
CCN(CC)CC

>  <Class Name>
inactive

$$$$
>  <Molecule>
O=C(CC(=O)C(F)(F)C(F)(F)C(F)(F)F)c1cccs1

>  <Class Name>
inactive

$$$$
>  <Molecule>
CCOC(=O)c1nc(C(Cl)(Cl)Cl)n(-c2ccc(Cl)cc2Cl)n1

>  <Class Name>
inactive

$$$$
>  <Molecule>
NCc1cccc(CN)c1

>  <Class Name>
inactive

$$$$
>  <Molecule>
FCOC(C(F)(F)F)C(F)(F)F

>  <Class Name>
inactive

$$$$
>  <Molecule>
CCCCCCCC(OC)OC

>  <Class Name>
inactive

$$$$
>  <Molecule>
CCOC(OCC)C(=O)c1ccccc1

>  <Class Name>
inactive

$$$$
>  <Molecule>
CC1CCC(C(=O)O)CC1 (configuration not stated)

>  <Class Name>
inactive

$$$$
>  <Molecule>
C=CC(F)(F)C(F)(F)C(F)(F)C(F)(F)F

>  <Class Name>
inactive

$$$$
>  <Molecule>
O=C(NO)c1ccccc1

>  <Class Name>
inactive

$$$$
>  <Molecule>
CCCCCCCCCCCCCC[n+]1ccccc1

>  <Class Name>
inactive

$$$$
>  <Molecule>
C=CC(C)(CCC=C(C)C)OC(C)=O (configuration not stated)

>  <Class Name>
inactive

$$$$
>  <Molecule>
CCOC(=O)CN[C@@H](C(=O)N1CC[C@H]1C(=O)NCc1ccc(/C(N)=N/O)cc1)C1CCCCC1

>  <Class Name>
inactive

$$$$
>  <Molecule>
CC(C)CCOCCC(C)C

>  <Class Name>
inactive

$$$$
